- test-details: self-splicing fitness, log relative to wild type (ln ratio); higher = more splicing; Tetrahymena group I intron in knt gene, E. coli kanamycin selection, DiMSum; sequences stand for … in CUCUCU…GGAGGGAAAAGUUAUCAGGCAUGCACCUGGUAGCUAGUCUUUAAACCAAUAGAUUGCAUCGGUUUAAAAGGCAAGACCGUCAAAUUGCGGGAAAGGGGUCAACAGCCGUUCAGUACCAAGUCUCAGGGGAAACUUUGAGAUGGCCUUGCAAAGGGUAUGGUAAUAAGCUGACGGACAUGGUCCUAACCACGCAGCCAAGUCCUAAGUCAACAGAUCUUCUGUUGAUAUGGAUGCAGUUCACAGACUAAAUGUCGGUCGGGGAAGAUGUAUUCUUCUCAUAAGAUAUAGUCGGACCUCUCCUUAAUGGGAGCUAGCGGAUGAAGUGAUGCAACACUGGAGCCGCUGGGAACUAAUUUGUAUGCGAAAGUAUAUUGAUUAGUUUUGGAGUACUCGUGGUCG;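 further: selection with 25 µg/mL kanamycin versus none on LB agar overnight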
- details: 30 °C
Output True for self-splicing fitness (ln) not less than -2; output False otherwise.

1) UGCGAGCAAUAUUACGGGCU False

Now turn to the next sequence.
I'd appreciate it if you could say whether CGCAAGCAAUAUUACGGGCG has self-splicing fitness (ln) at least equal to -2.
False

---

- test-details: self-splicing fitness, log relative to wild type (ln ratio); higher = more splicing; Tetrahymena group I intron in knt gene, E. coli kanamycin selection, DiMSum; sequences stand for … in CUCUCU…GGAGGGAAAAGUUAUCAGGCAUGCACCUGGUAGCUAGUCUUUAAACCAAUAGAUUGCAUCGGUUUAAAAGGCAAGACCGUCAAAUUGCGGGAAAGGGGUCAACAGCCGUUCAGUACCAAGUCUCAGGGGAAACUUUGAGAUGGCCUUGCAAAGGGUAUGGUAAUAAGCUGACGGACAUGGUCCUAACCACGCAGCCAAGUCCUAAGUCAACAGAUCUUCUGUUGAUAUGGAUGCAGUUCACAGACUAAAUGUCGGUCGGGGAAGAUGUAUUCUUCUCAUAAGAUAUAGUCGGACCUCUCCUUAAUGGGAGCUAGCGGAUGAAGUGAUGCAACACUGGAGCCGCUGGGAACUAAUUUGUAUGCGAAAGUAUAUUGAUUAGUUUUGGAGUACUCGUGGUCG
- details: 30 °C
Each record here notes measured self-splicing fitness (ln).
Lab note: write the figure by itself, no unit.

1. AAUAAGCAAUAUUACGUAGU -3.14
2. UUCGAGCAAUAUUACGGCCU -3.17
3. ACGAAGCAAUAUUACGACAG -1.59
4. ACCAAGCAAUAUUACGGCGC 0.119
5. GAAUAGCAAUAUUACGCAUA -2.62
6. GAGUAGCAAUAUUACGGGUC -2.57
7. GGUUAGCAAUAUUACGACUU -0.187
8. AAAUAGCAAUAUUACGACUC -0.664
9. CCCUAGCAAUAUUACGCUGU -4.59
10. UAUAAGCAAUAUUACGCUCA -0.3

Could you now consider this next sequence?
The reported value for UAGCAGCAAUAUUACGCUUG in terms of self-splicing fitness (ln) is -2.3

---

- test-details: self-splicing fitness, log relative to wild type (ln ratio); higher = more splicing; Tetrahymena group I intron in knt gene, E. coli kanamycin selection, DiMSum; sequences stand for … in CUCUCU…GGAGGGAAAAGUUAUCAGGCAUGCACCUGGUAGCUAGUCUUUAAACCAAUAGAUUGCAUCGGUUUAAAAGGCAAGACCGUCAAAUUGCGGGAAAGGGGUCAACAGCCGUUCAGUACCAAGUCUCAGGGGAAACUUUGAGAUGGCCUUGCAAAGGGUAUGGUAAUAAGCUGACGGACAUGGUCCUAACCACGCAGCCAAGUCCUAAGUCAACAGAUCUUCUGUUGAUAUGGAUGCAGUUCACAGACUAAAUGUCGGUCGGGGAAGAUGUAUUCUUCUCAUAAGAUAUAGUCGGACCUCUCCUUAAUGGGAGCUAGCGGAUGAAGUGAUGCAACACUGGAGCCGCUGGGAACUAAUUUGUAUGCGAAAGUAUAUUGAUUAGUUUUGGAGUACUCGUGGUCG
- details: 37 °C
quantity-measured: self-splicing fitness (ln)
Lab note: write the figure by itself, no unit.

1. CGUAAGCAAUAUUACGGGUC -2.45
2. UGUCAGCAAUAUUACGCUGA -0.59
3. GAGGAGCAAUAUUACGGGAC -2.41
4. UUCCAGCAAUAUUACGGUGA 0.234

The reported value for UUUAAGCAAUAUUACGAUAU in terms of self-splicing fitness (ln) is -1.52

The reported value for CACGAGCAAUAUUACGAGAA in terms of self-splicing fitness (ln) is -1.61

---

- test-details: self-splicing fitness, log relative to wild type (ln ratio); higher = more splicing; Tetrahymena group I intron in knt gene, E. coli kanamycin selection, DiMSum; sequences stand for … in CUCUCU…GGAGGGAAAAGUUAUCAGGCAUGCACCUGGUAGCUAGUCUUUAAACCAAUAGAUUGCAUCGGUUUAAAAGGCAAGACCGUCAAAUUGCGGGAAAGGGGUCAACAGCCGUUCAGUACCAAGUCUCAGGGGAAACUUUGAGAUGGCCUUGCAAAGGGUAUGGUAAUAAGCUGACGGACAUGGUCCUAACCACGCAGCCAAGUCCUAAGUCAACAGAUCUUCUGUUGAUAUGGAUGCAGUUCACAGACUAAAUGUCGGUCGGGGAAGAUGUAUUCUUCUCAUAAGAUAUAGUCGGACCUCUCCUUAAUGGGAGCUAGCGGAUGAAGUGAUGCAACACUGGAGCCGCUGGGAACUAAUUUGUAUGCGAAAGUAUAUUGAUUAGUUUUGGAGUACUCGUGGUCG
- details: 30 °C
quantity-measured: self-splicing fitness (ln)
Lab note: write the figure by itself, no unit.

Sample records with self-splicing fitness (ln):
1) GCCUAGCAAUAUUACGCUGA -1.69
2) CUGGAGCAAUAUUACGCGUU -3.89
3) GGUCAGCAAUAUUACGCGUC -1.46
4) UUCAAGCAAUAUUACGUUUA -1.49

The reported value for AGAAAGCAAUAUUACGGAAG in terms of self-splicing fitness (ln) is -2.64

---

- test-details: self-splicing fitness, log relative to wild type (ln ratio); higher = more splicing; Tetrahymena group I intron in knt gene, E. coli kanamycin selection, DiMSum; sequences stand for … in CUCUCU…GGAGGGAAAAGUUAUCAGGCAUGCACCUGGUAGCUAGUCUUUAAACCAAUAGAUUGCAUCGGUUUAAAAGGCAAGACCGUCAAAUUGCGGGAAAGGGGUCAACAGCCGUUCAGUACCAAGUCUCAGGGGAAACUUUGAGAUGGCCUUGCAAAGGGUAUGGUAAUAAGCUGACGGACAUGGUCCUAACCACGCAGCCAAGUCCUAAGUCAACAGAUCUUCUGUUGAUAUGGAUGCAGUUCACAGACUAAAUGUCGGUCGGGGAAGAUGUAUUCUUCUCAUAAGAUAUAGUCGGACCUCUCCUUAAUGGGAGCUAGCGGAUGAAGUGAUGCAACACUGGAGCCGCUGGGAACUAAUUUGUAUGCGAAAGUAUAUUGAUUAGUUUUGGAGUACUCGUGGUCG
- details: 37 °C
Each record here notes measured self-splicing fitness (ln).
Lab note: write the figure by itself, no unit.

Sample records with self-splicing fitness (ln):
1. CGCAAGCAAUAUUACGAAUA -2.4
2. AGUGAGCAAUAUUACGUGCA -0.509
3. GAUCAGCAAUAUUACGGGAU -1.18

The reported value for AGGGAGCAAUAUUACGUGAC in terms of self-splicing fitness (ln) is -1.15

The reported value for GGCCAGCAAUAUUACGGGUC in terms of self-splicing fitness (ln) is -2.41

The reported value for UCAGAGCAAUAUUACGAUGA in terms of self-splicing fitness (ln) is 0.109

---

Each record here notes measured self-splicing fitness (ln).
- test-details: self-splicing fitness, log relative to wild type (ln ratio); higher = more splicing; Tetrahymena group I intron in knt gene, E. coli kanamycin selection, DiMSum; sequences stand for … in CUCUCU…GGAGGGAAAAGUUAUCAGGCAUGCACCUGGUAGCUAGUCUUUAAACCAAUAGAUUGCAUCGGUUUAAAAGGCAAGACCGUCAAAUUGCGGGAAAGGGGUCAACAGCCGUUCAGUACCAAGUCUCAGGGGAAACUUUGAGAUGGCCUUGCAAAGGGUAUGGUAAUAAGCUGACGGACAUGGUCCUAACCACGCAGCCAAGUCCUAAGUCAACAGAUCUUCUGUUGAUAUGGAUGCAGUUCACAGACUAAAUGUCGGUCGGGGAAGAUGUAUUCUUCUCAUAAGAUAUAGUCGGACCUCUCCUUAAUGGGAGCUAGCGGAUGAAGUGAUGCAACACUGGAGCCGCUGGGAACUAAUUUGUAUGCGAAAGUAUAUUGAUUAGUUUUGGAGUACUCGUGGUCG
- details: 37 °C
Lab note: write the figure by itself, no unit.

1. UUUUAGCAAUAUUACGACCA -0.577
2. GAACAGCAAUAUUACGUGGC -2.6
3. UGCAAGCAAUAUUACGCCCC -0.556
4. CAGUAGCAAUAUUACGGUGC -3.2
5. UCCUAGCAAUAUUACGUGGU -1.38

The reported value for AACAAGCAAUAUUACGCCCG in terms of self-splicing fitness (ln) is -0.347

The reported value for AUCGAGCAAUAUUACGACGC in terms of self-splicing fitness (ln) is -0.674
